Target: TDP-43 (Homo sapiens, UniProt Q13148 1-414)
Sequence (Q13148 whole entry): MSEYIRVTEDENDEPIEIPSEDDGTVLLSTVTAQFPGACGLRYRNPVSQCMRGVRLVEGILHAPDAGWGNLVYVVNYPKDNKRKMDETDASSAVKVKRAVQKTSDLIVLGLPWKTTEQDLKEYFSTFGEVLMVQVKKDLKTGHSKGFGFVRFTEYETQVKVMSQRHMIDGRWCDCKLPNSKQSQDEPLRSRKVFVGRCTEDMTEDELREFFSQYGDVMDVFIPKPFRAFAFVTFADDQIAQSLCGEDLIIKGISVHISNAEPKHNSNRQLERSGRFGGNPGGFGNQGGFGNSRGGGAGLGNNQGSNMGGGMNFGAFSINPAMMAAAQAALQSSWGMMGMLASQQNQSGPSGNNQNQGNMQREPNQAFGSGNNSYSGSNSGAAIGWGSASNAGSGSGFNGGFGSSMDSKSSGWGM
Assay: RNA Bind-n-Seq with designed 260-mer pool; 25 mM Tris-HCl, 150 mM KCl, 3 mM MgCl2, BSA (printed 500 mg/mL), 20 units/mL SUPERase IN; pH not stated; 500 nM RNA pool, 1 h, 4 C; TDP-43 5, 50, 500 nM; high values mean tight binding
Conditions: protein: recombinant; tags: SBP (GST cleaved off with PreScission; pGEX-GST-SBP)
Whole data set: some 9,900 sequences, median “r (bound/input frequency ratio)” near 0.7, cut for the highest 2% near 6.5. For the sample, the highest values were picked, then their nearest neighbours and some sequences at random.
Catalogue of binding signal readings, one per entry.

Binder	binding signal
ENSMUSG00000029028.209|Lrrc47 (ssRNA) RNA: GGGAGUUCUACAGUCCGACGAUCGCUUCGAUAUCCGCAUGCUACAGCAGCUGCACAGAGGACUUGGUGGCCCCGUGCCUUGCCAUCUGGCUGAGAAGAGAACCAGACCCUCAGCCUUCCCCCUCGACACCUUCUCGUUGGUGACCUCUGACCUUAAAGGACCAUUUCUACCUUCUGUAAAAGAACACCUGUUUGGGGUUGCGUGCGGCUUUCAUCCUAAGGCCGUGCGAGAGCCGUUAGCUGUCAGAACUAGUGAAGCUCCAGGCUCCUCGUGGCAGACCCUGGACAACGCUGGUAGCUGUUCCUCUUGCGGUCGCACUAGUGUGGAAUUCUCGGGUGUCAAGG	0.424 R (bound/input frequency ratio)

Shifting focus to the binder that follows.
Reported binding signal for ENSMUSG00000058297.516|Spock2|37:41 (ssRNA) RNA: GGGAGUUCUACAGUCCGACGAUCGCUUCGAUAUCCGCAUGCUAAUCUUACCCCCAGUGUUCCACAGGAGUCGUGACCACCACACAUGGGUGGGCACAGGUCUGCCUUGCUCCAGCCCCCUCCCUUGGUUUCUGUUGGUACCCAUUUGGCUUUUAUCUGCUUUCUGCUUCACCACUAAGUGCGUAGGUGGGGUCUUUUGAUAUCGGCUCCCCAAAGCCCAAGCCCACAGCCCUAGGAGAGAACCAGGGGCCCAUCUUUGACACCUGGGCCAUCACGAGCCCUCCCGCCUGCAGUUGUCCUAGGGCUCUUGCGGUCGCACUAGUGUGGAAUUCUCGGGUGUCAAGG : what is it?
0.797 R (bound/input frequency ratio)

Reference source for all entries: paper PMC12864922
